assay.comment: soluble fraction after stress (log2 fold change); higher = more stays soluble; pooled small domains, quantitative proteomics
condition.details: stress: 50 degC
Label scheme for soluble fraction (log2): lower than -0.4 is Condition not met, -0.4 and above is Condition met.

Worked cases, answers included:
{"construct.sequence": "HMENEIPVPELVGMSEADAAAKLASLGLERDTQREATADEESVGKVLRQEPTPGEYVDEGHKVTIWVGE", "label.value": "Condition met"}
{"construct.sequence": "HMPNGEAYQRFTYENDILEGRFEEWDSLGTDIVKGDYTAGVRHKKWLYYDSEGRRDKFVFLDMDSI", "label.value": "Condition met"}
{"construct.sequence": "HMHEGNWTLPNPMPIGTTLTLPEHSRLYISNLAGQRVFETSATSVEIPLLPKGTYLLRLETMNGHTTRKIL", "label.value": "Condition met"}
{"construct.sequence": "HMFTYDLSERELTIIELVAKGLNNKELADTLFLSEGTIRNYLSTLLNKLDLRDRTQLAIFYYQHL", "label.value": "Condition not met"}
{"construct.sequence": "HMDKTTIKNEQKKQILIFAEMNLFFKAKDVAELLGLQASRARYLLQELVKDGKIQGIGNNKGRKYQLI", "label.value": "Condition not met"}

query: Hi, just wondering whether HMHKIRRQTKITKSLLDQIEGIGSSRKKALLNHFGSAKAVGEAGETDLGTVKGISNSLAKKIYDFFHAT shows soluble fraction (log2) of -0.4 or higher.
result: Condition met

query: Proceed to HMFDNPLSERDKEILNHISMGKSNKEIANQVGLAEQTIKNTISVILDKTFTSNRAQAASMATKNKW
result: Condition met

###

assay.comment: soluble fraction after stress (log2 fold change); higher = more stays soluble; pooled small domains, quantitative proteomics
condition.details: stress: 50 degC
observed.property: soluble fraction (log2)
Answers are plain numbers.

// known answers, use as guide
{"construct.sequence": "HMINAQETEIYRFLIEKANRLYSMVLGLKREELMTATRQFEEEVKHSSIHHLPKIYQAFSSYLELLERG", "observed.property": "soluble fraction (log2)", "observed.value": -0.478}
{"construct.sequence": "HMARPLLSPREQDVLALIARGFSYSEVARLQAVTVHTIRTHIRNLYAKLSVHSKTEAVFEATRMGLLP", "observed.property": "soluble fraction (log2)", "observed.value": -1.63}
{"construct.sequence": "HMNYNEKGEYTRTLTSGSETAVMTYRNFGETLDVALFKNGVQTDSLRLIKSEPGVLYRQSNGQFEKI", "observed.property": "soluble fraction (log2)", "observed.value": 0.0586}
{"construct.sequence": "HMAQPIPSGADIRAAREAAGMTLRRFAEYIAGPDFSTWSRYETGKPIRVKNISPEVWQRVRKFIAQNKG", "observed.property": "soluble fraction (log2)", "observed.value": -0.0609}
{"construct.sequence": "HMYEHLKALRESLGMTQAEFGESVGVAKSTYNNYEIGARDPKSDFWIAVAQRYGVTIDYLMGFSDDPKKT", "observed.property": "soluble fraction (log2)", "observed.value": -1.65}

For each of the sequences below, note its soluble fraction (log2).
1. HMHIMINPDQLSPEQIQSIRTWAEEGLDLNAIQKRLHEDLNIKLTFMDTRFLLQDLDIRIRQPEPEPEAEQ
2. HMDQVYYDLKSLIELLPADQMEVLKMRYFEELSFKKIAQKIDVSINTALGRMRYALINLRALSKKHHID

result:
1: -0.00841; 2: -0.189

query: Would you mind telling me what soluble fraction (log2) value was observed for HMAPVLTRREHEVLHLLTDGLDNRTIARNLFISEATVKFHLHNIMGKFGVHRRAALVSTALRG ?
result: -2.21

###

assay.comment: soluble fraction after stress (log2 fold change); higher = more stays soluble; pooled small domains, quantitative proteomics
condition.details: stress: 50 degC
observed.property: soluble fraction (log2)

Recorded results for 5 sequences are shown here.
{"construct.sequence": "HMSDPSAQADALFNEGKTAEAFNVLLRLIEDSPEDQREDYRVRLLDLFRIAGNTPEVKAARRRLSALLM", "observed.value": -0.252}
{"construct.sequence": "HMVVEGMQFDRGYLSQYMVTDNEKMVADLENPYILITDKKISNIQEILPLLESILQSSRPLLIIADD", "observed.value": -0.214}
{"construct.sequence": "HMVLNVMIEEEVHREIIAAISKLPKERRRVVELSMAGFSQEEIAEKMAISVNTVKTIKLRAYRVLRERLKG", "observed.value": -3.18}
{"construct.sequence": "HMELGRQDSAQLGRWAAGILAKNGKKITGRTMEFFLSRTGDDMENISSELEKLISYTLGREVITEEDIEAV", "observed.value": -0.351}
{"construct.sequence": "HMISRDPYDAGAIKRHFSASGLFSSKELAHYLGKSVSTAKNVLSDLQQQGIVEMVGQGPATKYRFI", "observed.value": 0.343}

Quick one: give me soluble fraction (log2) for each item below, same order please.
1. HMANIAVTIPTGSSGDRIADILLQAGLIKDKQDFNQAVIAAGAEGKLRAGYFVIPSNATPAEIISILT
2. HMDKRYYYRILGLVGEPTRDQIEAAYETRIAKLRSSDYGDDPLYARRKISEVTMAYKVLTGS

result:
-0.695
-0.281

###

assay.comment: soluble fraction after stress (log2 fold change); higher = more stays soluble; pooled small domains, quantitative proteomics
condition.details: stress: 50 degC
I would appreciate it if you labelled entries true (1) when soluble fraction (log2) is -0.6 or higher, otherwise false (0).

query: hey, is soluble fraction (log2) for this one >= -0.6? HMTTAGTAIVQTGNSGKLNLREQAYANAGILGRYSNGTAVTVLQKGAAWSYVEVKGQKGYMMSKFLKFTS
result: true (1)

###

assay.comment: soluble fraction after stress (log2 fold change); higher = more stays soluble; pooled small domains, quantitative proteomics
condition.details: stress: 50 degC
Threshold rule: soluble fraction (log2) greater than or equal to -0.9 is 1 (yes); below that, 0 (no).

{"construct.sequence": "HMTETTTVPKLKGLTKDEAEDAAKSSKIKLEFIDEISKTVEAGVIIKQEKDEGETVNAGDTVKVYVSIGT", "label.value": "1 (yes)"}
{"construct.sequence": "HMLDLNEVEFYAIENQLKENLKIDSKRFYELVPLIKGYQEDDIIQVLRWLIDNNRIIRHKDESLTWHS", "label.value": "0 (no)"}
{"construct.sequence": "HMVLFDLSEREKEVLKLLADGNSYKMIASRLEITYFTVNAHLKKIYEKLQVHSASEAVSVALRNSL", "label.value": "0 (no)"}
{"construct.sequence": "HMQHYQFEVDEASSKKRLDVFLSENLPEISRSRLKKLIDEKRVTVNEMSRPAGYKVRVKEKIEFHIPPL", "label.value": "1 (yes)"}
{"construct.sequence": "HMHGLNQNKPIPIADIVNSVNNYLTSLGKKTITDNSVLSNLKKAAKYLNTAYNLVLRPDSLNMTVTLL", "label.value": "1 (yes)"}
{"construct.sequence": "HMNMNDIKFGKYLKRVRKKYNFSKEYVANILKVKESLVSDWESGRLTLNDEYMEKLSLFYGVNLYKK", "label.value": "1 (yes)"}
{"construct.sequence": "HMTRPLVILEDVKFPSYNEIVSLTLPDGTRRGGQVLEVSGNKAIVQVFEGTSGIDVKDTHIELTKSS", "label.value": "1 (yes)"}

query: Answer whether soluble fraction (log2) of HMIMHLNQIIRNKRLAAGLTQEALAQKVGVTAPAVSKWEKGISYPDITLLPILARNLNTDVNTLLDFSA is greater than or equal to -0.9.
result: 1 (yes)

###

assay.comment: soluble fraction after stress (log2 fold change); higher = more stays soluble; pooled small domains, quantitative proteomics
condition.details: stress: 50 degC
Grouping key: soluble fraction (log2). Bins: low = under -0.3, moderate = from -0.3 up to 0.04, high = 0.04 and over

Completed entries (count: 5):
{"construct.sequence": "HMGTRPAYAADAPNPQKRFIYHRIVDQLRNKATGAPISYRAIAAETGVSVQTVINIKNRMNQMLSEK", "label.value": "moderate"}
{"construct.sequence": "HMSPLDSHLGRRIALRRQQLNTSAADLEKAISMVPGSVARFEAGRQSLNATQLFTLSRALDVPVLYFFEG", "label.value": "low"}
{"construct.sequence": "HMHLTNIPKGFTPSFDTKQWIVEEFGERYNYDNELKIFINHYRASGTTKSDWQYAFRSWLLRAKKFT", "label.value": "low"}
{"construct.sequence": "HMDETYRRQLEDLAREHGAEYLHGILREVDPASAEAIHANNIKRVIRALEFYHLSGKKISEHNETERQ", "label.value": "high"}
{"construct.sequence": "HMRQFEPVEGYNPYADKNELHGYEYWGAKFADSRSPEETAWIKQQIDDENEDRRFISEAGLA", "label.value": "moderate"}

query: Please report the category associated with HMGQDGFIGLEAAKKLVLQKLGLTSAEFIKAELDAEDRKYELELIVDGIEYDFDIDAYSGAFLKQEQETV , nothing else.
result: moderate

query: Record: HMDLQNIQNQLNTEFAKSDTRIIFWFDDKGEYEDEVSELQLGDVKLHILDGLNWFYSKYLLNEA
result: moderate

query: Same again, this time with HMSDTSAIEKIIDEVLSDESSQKAINDIKNGNEKVYGFLVGQVMKKSQGKANPGLVQKMLREKIAK
result: high

query: Please do the same for HMSQDEKITNYIYEGNKNTQTEAFVEAEKSYRKALSLSPEKPEALYNLGNTHFLDKQYDEASQRFF as well.
result: high

query: Also, HMDFPYISGIEIAAIKNREFIRIETDKAQEIAIALDKSGIPFSARFSDAEMVLTYDGSYKEQVEDIIAKA please.
result: moderate

query: Another sequence to look at: HMNEYLPEAVQKLLEVMEYDIPYTSNELMERLGLKAKEGFRRNYLHPAMEMKLIQMTIPDKPNSRNQRYLR
result: low

query: Here is the next sequence: HMSDEVNTDKAFRAIDSTLNRNVKGIAPRDHTLLRNTMITYFKSNDYIDYDTMIQSTLENYKPTELEQDKM
result: high

query: Same question for HMIDFDHADIERLWNSIIHYVPERQKLDFAIDFIKSLEDIGVEHDVLRGSAELDPKLEEAVNTVFE please.
result: low

query: Also check HMVKLSVGDIVQFAGGPHYVSSSAAKPASSPTAGPAKVTMIYQGAKHPYHIVHTTSASTVWGWVDADKVVK
result: moderate

query: Next up: HMRIASANAIYDELLNKRDDAKLAELKQEDINLYALYILQNGSADERAALENTQGIDVVLKEIINLQNG
result: low
